Target: UniProt:P14842
Sequence (P14842 whole entry): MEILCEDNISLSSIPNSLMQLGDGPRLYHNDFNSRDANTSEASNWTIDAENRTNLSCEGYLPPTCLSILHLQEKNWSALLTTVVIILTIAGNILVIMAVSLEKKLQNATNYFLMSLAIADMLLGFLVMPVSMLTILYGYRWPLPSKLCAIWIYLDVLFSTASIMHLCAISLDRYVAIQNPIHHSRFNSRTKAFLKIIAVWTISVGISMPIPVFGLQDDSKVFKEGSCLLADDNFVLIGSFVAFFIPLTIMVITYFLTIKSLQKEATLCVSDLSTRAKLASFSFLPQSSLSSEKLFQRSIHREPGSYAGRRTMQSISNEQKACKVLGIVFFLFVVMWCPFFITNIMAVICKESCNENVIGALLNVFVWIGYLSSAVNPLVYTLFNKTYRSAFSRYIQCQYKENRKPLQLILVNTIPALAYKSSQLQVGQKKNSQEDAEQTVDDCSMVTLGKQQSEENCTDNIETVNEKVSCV
Assay: 5HT2A receptor binding assay ([3H]-Ketanserin, rat brain striatum membrane)
Conditions: test compound final concentration 10^−5 M; [3H]-Ketanserin; rat brain striatum membrane; read-out: 5HT2A inhibition %
readout.kind: inhibition at 10 µM (%)
Numbers only, in %.

Examples with their reported inhibition at 10 µM follow.
| compound | endpoint.unit | inhibition at 10 µM |
| --- | --- | --- |
| Cc1cc(=O)oc2cc(OCCCN3CCN(c4nsc5ccccc45)CC3)ccc12 | % | 88.6 |
| O=C1CC(c2ccccc2)c2ccc(OCCCCN3CCC(c4noc5cc(F)ccc45)CC3)cc2O1 (stereo not drawn) | % | 115 |
| CCc1cc(=O)oc2cc(OCCCCN3CCN(c4nsc5ccccc45)CC3)ccc12 | % | 56.1 |
| Cc1cc(=O)oc2c(C)c(OCCCCN3CCN(c4nsc5ccccc45)CC3)ccc12 | % | 97.4 |
| O=c1cc(-c2ccccc2)c2ccc(OCC(O)CN3CCC(c4noc5cc(F)ccc45)CC3)cc2o1 (stereo not drawn) | % | 129 |

Please find the next compound below.
Query :: // fetch inhibition at 10 µM for Cc1cc(=O)oc2c(Cl)c(OCCCCN3CCC(c4noc5cc(F)ccc45)CC3)ccc12 ; system: UniProt:P14842
Result :: 119

----------
Please respond with reported LD50 for every item in the list.
Test: in vivo
Details: both, mouse, po

Give LD50 for each listed item.
1. Cc1cc(=O)oc2cc(OCCCN3CCC(c4noc5cc(F)ccc45)CC3)ccc12
2. O=c1ccc2ccc(OCCCCN3CCC(c4noc5cc(F)ccc45)CC3)cc2o1
3. Cc1cc(=O)oc2c(C)c(OCCCCN3CCC(c4noc5cc(F)ccc45)CC3)ccc12

Result ::
["1000 to 2000 mg/kg", "> 2000 mg/kg", "> 2000 mg/kg"]

Give LD50 for each listed item.
1. Cc1cc(=O)oc2cc(OCCCCN3CCC(c4noc5cc(F)ccc45)CC3)ccc12
2. Cc1nc2n(c(=O)c1CCN1CCC(c3noc4cc(F)ccc34)CC1)CCCC2 [risperidone, reference compound]

Result ::
["> 2000 mg/kg", "82.1 mg/kg"]

----------
Molecular target: 5-HT1A receptor (Rattus norvegicus, UniProt P19327)
Sequence (P19327 whole entry): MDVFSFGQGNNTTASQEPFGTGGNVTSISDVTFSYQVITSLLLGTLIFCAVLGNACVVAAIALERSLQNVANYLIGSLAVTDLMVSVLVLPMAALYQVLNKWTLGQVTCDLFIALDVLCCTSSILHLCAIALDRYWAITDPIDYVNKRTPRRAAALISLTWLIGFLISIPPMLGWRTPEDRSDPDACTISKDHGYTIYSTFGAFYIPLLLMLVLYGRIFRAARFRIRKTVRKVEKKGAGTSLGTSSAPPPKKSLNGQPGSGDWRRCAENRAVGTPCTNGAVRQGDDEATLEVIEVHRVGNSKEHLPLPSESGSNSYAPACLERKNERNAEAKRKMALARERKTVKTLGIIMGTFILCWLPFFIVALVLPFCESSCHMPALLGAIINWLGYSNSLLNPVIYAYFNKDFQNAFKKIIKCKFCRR
Test: 5HT1A receptor binding assay (3H-8-OH-DPAT, rat brain striatum membrane)
Settings: test compound final concentration 10^−5 M; 3H-8-OH-DPAT; rat brain striatum membrane
readout.kind: inhibition at 10 µM (%)
Give bare numbers, in %.

Examples with their reported inhibition at 10 µM follow.
| compound | readout.kind | quantitative.result |
| --- | --- | --- |
| Cc1cc(=O)oc2cc(OCCCN3CCN(c4nsc5ccccc45)CC3)ccc12 [Compound 8] | inhibition at 10 µM | 98.5 |
| O=c1cc(CO)c2ccc(OCCCCN3CCC(c4noc5cc(F)ccc45)CC3)cc2o1 [Compound 31] | inhibition at 10 µM | 63.9 |
| O=c1cc(C(F)(F)F)c2ccc(OCCCN3CCC(c4noc5cc(F)ccc45)CC3)cc2o1 [Compound 15] | inhibition at 10 µM | 107 |
| O=c1ccc2ccc(OCCCCN3CCN(c4nsc5ccccc45)CC3)cc2o1 [Compound 2] | inhibition at 10 µM | 99.4 |
| Cc1cc(=O)oc2cc(OCC(O)CN3CCC(c4noc5cc(F)ccc45)CC3)ccc12 (stereo not shown) [Compound 32] | inhibition at 10 µM | 103 |

Give inhibition at 10 µM for each listed item.
1. O=c1cc(-c2ccccc2)c2ccc(OCC(O)CN3CCC(c4noc5cc(F)ccc45)CC3)cc2o1 (stereo not shown) [Compound 33]
2. O=c1cc(C(F)(F)F)c2ccc(OCCCCN3CCC(c4noc5cc(F)ccc45)CC3)cc2o1 [Compound 17]

Result ::
23.5
101

Give inhibition at 10 µM for each listed item.
1. Cc1cc(=O)oc2c(Cl)c(OCCCCN3CCN(c4nsc5ccccc45)CC3)ccc12 [Compound 20]
2. O=c1ccc2ccc(OCCCN3CCN(c4nsc5ccccc45)CC3)cc2o1 [Compound 4]
3. Cc1cc(=O)oc2c(Cl)c(OCCCN3CCC(c4noc5cc(F)ccc45)CC3)ccc12 [Compound 21]
4. O=C1CC(c2ccccc2)c2ccc(OCCCCN3CCC(c4noc5cc(F)ccc45)CC3)cc2O1 (stereo not shown) [Compound 34]

Result ::
[92.8, 101, 101, 5.9]

Give inhibition at 10 µM for each listed item.
1. CCc1cc(=O)oc2cc(OCCCCN3CCC(c4noc5cc(F)ccc45)CC3)ccc12 [Compound 27]
2. CCc1cc(=O)oc2cc(OCCCCN3CCN(c4nsc5ccccc45)CC3)ccc12 [Compound 28]
3. O=c1cc(C(F)(F)F)c2ccc(OCCCN3CCN(c4nsc5ccccc45)CC3)cc2o1 [Compound 16]

Result ::
[65.7, 11, 104]

Give inhibition at 10 µM for each listed item.
1. CCCc1cc(=O)oc2cc(OCCCCN3CCC(c4noc5cc(F)ccc45)CC3)ccc12 [Compound 25]
2. Cc1cc(=O)oc2cc(OCCCCN3CCN(c4nsc5ccccc45)CC3)ccc12 [Compound 5]
3. Cc1c(C)c2ccc(OCCCCN3CCC(c4noc5cc(F)ccc45)CC3)cc2oc1=O [Compound 29]
4. O=c1cc(-c2ccccc2)c2ccc(OCCCCN3CCC(c4noc5cc(F)ccc45)CC3)cc2o1 [Compound 13]
5. Cc1cc(=O)oc2c(C)c(OCCCCN3CCN(c4nsc5ccccc45)CC3)ccc12 [Compound 24]
6. CCCc1cc(=O)oc2cc(OCCCCN3CCN(c4nsc5ccccc45)CC3)ccc12 [Compound 26]
7. Cc1cc(=O)oc2cc(OCCCCCN3CCC(c4noc5cc(F)ccc45)CC3)ccc12 [Compound 9]

Result ::
84.5
114
97.1
111
105
99.7
88.8

Give inhibition at 10 µM for each listed item.
1. O=c1cc(-c2ccccc2)c2ccc(OCCCCN3CCN(c4nsc5ccccc45)CC3)cc2o1 [Compound 14]
2. O=c1ccc2ccc(OCCCN3CCC(c4noc5cc(F)ccc45)CC3)cc2o1 [Compound 3]
3. Cc1cc(=O)oc2cc(OC/C=C/CN3CCC(c4noc5cc(F)ccc45)CC3)ccc12 [Compound 10]

Result ::
1. 95.5
2. 42.3
3. 102

Give inhibition at 10 µM for each listed item.
1. Cc1cc(=O)oc2c(C)c(OCCCCN3CCC(c4noc5cc(F)ccc45)CC3)ccc12 [Compound 23]
2. O=c1cc(CO)c2ccc(OCCCN3CCC(c4noc5cc(F)ccc45)CC3)cc2o1 [Compound 30]

Result ::
1: 78.5; 2: 82.8

Give inhibition at 10 µM for each listed item.
1. O=c1cc(-c2ccccc2)c2ccc(OCCCN3CCC(c4noc5cc(F)ccc45)CC3)cc2o1 [Compound 11]
2. Cc1cc(=O)oc2c(Cl)c(OCCCCN3CCC(c4noc5cc(F)ccc45)CC3)ccc12 [Compound 19]

Result ::
1: 35.3; 2: 104
